Just for reference, ChEMBL document CHEMBL1147663 is where these values come from.

molecular target: Mu-type opioid receptor (Rattus norvegicus) (UniProt P33535); assay: Activity against [35S]GTP-gamma-S binding to rat mu opioid receptor expressed in HN9.10 cells; format: functional, cell-based
Sequence (P33535 whole entry): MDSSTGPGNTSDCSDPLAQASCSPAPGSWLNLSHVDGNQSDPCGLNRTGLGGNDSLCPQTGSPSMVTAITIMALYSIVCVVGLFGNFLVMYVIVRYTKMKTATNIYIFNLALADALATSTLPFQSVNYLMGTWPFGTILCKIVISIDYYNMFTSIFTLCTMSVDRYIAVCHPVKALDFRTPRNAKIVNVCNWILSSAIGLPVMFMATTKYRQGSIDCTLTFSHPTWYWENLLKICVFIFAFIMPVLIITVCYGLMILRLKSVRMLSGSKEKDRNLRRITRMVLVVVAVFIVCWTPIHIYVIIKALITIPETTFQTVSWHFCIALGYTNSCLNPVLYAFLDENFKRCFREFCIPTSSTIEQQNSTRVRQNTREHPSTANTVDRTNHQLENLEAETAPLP
Where a SMILES comes first, the peptide text is derived from it. [ ]: non-standard residue; d: D form. NMeNle = CCCC[C@H](NC)C(=O)O
Property measured: Emax
Returns: string containing the numeric result and its unit.

Molecule	Target	Emax
CCCC[C@@H](C(=O)N[C@@H](CC(=O)O)C(=O)N[C@@H](Cc1ccccc1)C(N)=O)N(C)C(=O)[C@H](Cc1c[nH]c2ccccc12)NC(=O)CNC(=O)CNC(=O)[C@@H](N)Cc1ccc(O)cc1 (H-YGGW[NMeNle]DF-NH2)	Mu-type opioid receptor (Rattus norvegicus) (UniProt P33535)	100%
CCCC[C@@H](C(=O)N[C@@H](CC(=O)O)C(=O)N[C@@H](Cc1ccccc1)C(N)=O)N(C)C(=O)[C@H](Cc1c[nH]c2ccccc12)NC(=O)CNC(=O)[C@@H](C)NC(=O)[C@@H](N)Cc1ccc(O)cc1	Mu-type opioid receptor (Rattus norvegicus) (UniProt P33535)	73%
CCCC[C@@H](C(=O)N[C@@H](CC(=O)O)C(=O)N[C@@H](Cc1ccccc1)C(N)=O)N(C)C(=O)[C@H](Cc1c[nH]c2ccccc12)NC(=O)CNC(=O)[C@@H](Cc1ccccc1)NC(=O)[C@@H](N)Cc1ccc(O)cc1	Mu-type opioid receptor (Rattus norvegicus) (UniProt P33535)	300%

Input line: Tell me Emax of `CCCC[C@H](NC(=O)[C@H](Cc1c[nH]c2ccccc12)NC(=O)CNC(=O)[C@@H](C)NC(=O)[C@@H](N)Cc1ccc(O)cc1)C(=O)N[C@@H](CC(=O)O)C(=O)N[C@@H](Cc1ccccc1)C(N)=O` when tested on Mu-type opioid receptor (Rattus norvegicus) (UniProt P33535).
Output line: 86%

Input line: Recall the reported Emax of `CCCC[C@@H](C(=O)N[C@@H](CC(=O)O)C(=O)N[C@@H](Cc1ccccc1)C(N)=O)N(C)C(=O)[C@H](Cc1c[nH]c2ccccc12)NC(=O)CNC(=O)[C@H]1CCCN1C(=O)[C@@H](N)Cc1ccc(O)cc1` when tested on Mu-type opioid receptor (Rattus norvegicus) (UniProt P33535).
Output line: 210%

* * *

# pIC50 listing for each entry below
biological target: UniProt:P33535; test: Displacement of [3H]DAMGO from rat mu opioid receptor expressed in HN9.10 cells
The value called pIC50 is obtained by taking minus log10 of the concentration in mol/L.

Record smiles	Result number
CCCC[C@H](NC(=O)[C@@H](Cc1c[nH]c2ccccc12)NC(=O)CNC(=O)[C@@H](CCCC)NC(=O)[C@@H](N)Cc1ccc(O)cc1)C(=O)N[C@@H](CC(=O)O)C(=O)N[C@@H](Cc1ccccc1)C(N)=O	6.20
CCCC[C@@H](C(=O)N[C@@H](CC(=O)O)C(=O)N[C@@H](Cc1ccccc1)C(N)=O)N(C)C(=O)[C@H](Cc1c[nH]c2ccccc12)NC(=O)CNC(=O)[C@@H](Cc1ccccc1)NC(=O)[C@@H](N)Cc1ccc(O)cc1	6.61

Shifting focus to the compound that follows.
Input line: State pIC50 (UniProt:P33535) of `CCCC[C@H](NC(=O)[C@H](Cc1c[nH]c2ccccc12)NC(=O)CNC(=O)[C@@H](Cc1ccccc1)NC(=O)[C@@H](N)Cc1ccc(O)cc1)C(=O)N[C@@H](CC(=O)O)C(=O)N[C@@H](Cc1ccccc1)C(N)=O` .
Output line: 7.10

* * *

target: Mu-type opioid receptor (Rattus norvegicus) (UniProt P33535); test: Activity against [35S]GTP-gamma-S binding to rat mu opioid receptor expressed in HN9.10 cells; type: functional, cell-based
Emax below 50% gives Not fulfilled; Emax at or above it gives Fulfilled.

Record smiles	Target	Class assignment
CCCC[C@@H](C(=O)N[C@@H](CC(=O)O)C(=O)N[C@@H](Cc1ccccc1)C(N)=O)N(C)C(=O)[C@@H](Cc1c[nH]c2ccccc12)NC(=O)CNC(=O)[C@@H](C)NC(=O)[C@@H](N)Cc1ccc(O)cc1	Mu-type opioid receptor (Rattus norvegicus) (UniProt P33535)	Not fulfilled
CCCC[C@H](NC(=O)[C@H](Cc1c[nH]c2ccccc12)NC(=O)CNC(=O)[C@@H](Cc1ccccc1)NC(=O)[C@@H](N)Cc1ccc(O)cc1)C(=O)N[C@@H](CC(=O)O)C(=O)N[C@@H](Cc1ccccc1)C(N)=O	Mu-type opioid receptor (Rattus norvegicus) (UniProt P33535)	Fulfilled
CCCC[C@H](NC(=O)[C@@H](Cc1c[nH]c2ccccc12)NC(=O)CNC(=O)[C@@H](CCCC)NC(=O)[C@@H](N)Cc1ccc(O)cc1)C(=O)N[C@@H](CC(=O)O)C(=O)N[C@@H](Cc1ccccc1)C(N)=O	Mu-type opioid receptor (Rattus norvegicus) (UniProt P33535)	Fulfilled

Then this compound:
Input line: // inclusive: Emax at least 50%? input: `CCCC[C@H](NC(=O)[C@@H](Cc1c[nH]c2ccccc12)NC(=O)CNC(=O)[C@@H](Cc1ccccc1)NC(=O)[C@@H](N)Cc1ccc(O)cc1)C(=O)N[C@@H](CC(=O)O)C(=O)N[C@@H](Cc1ccccc1)C(N)=O`
Output line: Fulfilled

* * *

biological target: Mu-type opioid receptor (Rattus norvegicus); test: Displacement of [3H]DAMGO from rat mu opioid receptor expressed in HN9.10 cells
Sequence (P33535 whole entry): as above
Listed molecules paired with reported IC50
// units = nM; emit number, no label

Record smiles	Target	Result number
CCCC[C@@H](NC(=O)[C@@H](N)Cc1ccc(O)cc1)C(=O)NCC(=O)N[C@@H](Cc1c[nH]c2ccccc12)C(=O)N(C)[C@@H](CCCC)C(=O)N[C@@H](CC(=O)O)C(=O)N[C@@H](Cc1ccccc1)C(N)=O	Mu-type opioid receptor (Rattus norvegicus)	58.9
CCCC[C@@H](C(=O)N[C@@H](CC(=O)O)C(=O)N[C@@H](Cc1ccccc1)C(N)=O)N(C)C(=O)[C@@H](Cc1c[nH]c2ccccc12)NC(=O)CNC(=O)[C@@H](Cc1ccccc1)NC(=O)[C@@H](N)Cc1ccc(O)cc1	Mu-type opioid receptor (Rattus norvegicus)	13.8

Proceeding to the next molecule to report its IC50.
Input line: Look up and report IC50, with Mu-type opioid receptor (Rattus norvegicus) as system, for `CCCC[C@@H](C(=O)N[C@@H](CC(=O)O)C(=O)N[C@@H](Cc1ccccc1)C(N)=O)N(C)C(=O)[C@H](Cc1c[nH]c2ccccc12)NC(=O)CNC(=O)[C@H]1CCCN1C(=O)[C@@H](N)Cc1ccc(O)cc1`
Output line: 6030

* * *

biological target: Delta-type opioid receptor (Mus musculus); test: Agonist activity at delta opioid receptor assessed as inhibition of electrically stimulated ICR mouse vas deferens contraction
Sequence (P32300 whole entry): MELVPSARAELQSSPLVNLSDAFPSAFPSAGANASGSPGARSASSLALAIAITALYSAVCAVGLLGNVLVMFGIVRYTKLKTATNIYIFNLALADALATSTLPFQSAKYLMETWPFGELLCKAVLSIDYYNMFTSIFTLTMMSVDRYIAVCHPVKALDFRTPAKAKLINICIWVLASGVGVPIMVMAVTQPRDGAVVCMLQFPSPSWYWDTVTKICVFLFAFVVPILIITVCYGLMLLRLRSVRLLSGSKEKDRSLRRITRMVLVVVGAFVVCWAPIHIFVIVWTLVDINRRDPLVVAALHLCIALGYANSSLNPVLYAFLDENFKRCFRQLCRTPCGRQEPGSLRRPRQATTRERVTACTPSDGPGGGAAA
Property measured: IC50 (µM)
Express it in µM; write the number only.

Input line: Specify the recorded IC50 for `CCCC[C@H](NC(=O)[C@@H](Cc1c[nH]c2ccccc12)NC(=O)CNC(=O)[C@@H](CCCC)NC(=O)[C@@H](N)Cc1ccc(O)cc1)C(=O)N[C@@H](CC(=O)O)C(=O)N[C@@H](Cc1ccccc1)C(N)=O` , system: Delta-type opioid receptor (Mus musculus).
Output line: 0.31

* * *

target: Mu-type opioid receptor (Cavia porcellus); experiment: Agonist activity at mu opioid receptor assessed as inhibition of electrically stimulated Hartley guinea pig ileum contraction
Sequence (P97266 whole entry): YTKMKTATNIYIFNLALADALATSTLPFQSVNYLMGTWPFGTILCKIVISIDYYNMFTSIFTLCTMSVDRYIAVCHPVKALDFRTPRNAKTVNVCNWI
Property measured: IC50 (nM)
Respond numerically; units are nM and should not be typed.

Worked examples follow.
Record smiles	Target	Property measured	U	Result number
CCCC[C@H](NC(=O)[C@@H](Cc1c[nH]c2ccccc12)NC(=O)CNC(=O)[C@@H](CCCC)NC(=O)[C@@H](N)Cc1ccc(O)cc1)C(=O)N[C@@H](CC(=O)O)C(=O)N[C@@H](Cc1ccccc1)C(N)=O	Mu-type opioid receptor (Cavia porcellus)	IC50	nM	1000
CCCC[C@@H](C(=O)N[C@@H](CC(=O)O)C(=O)N[C@@H](Cc1ccccc1)C(N)=O)N(C)C(=O)[C@H](Cc1c[nH]c2ccccc12)NC(=O)CNC(=O)[C@@H](Cc1ccccc1)NC(=O)[C@@H](N)Cc1ccc(O)cc1	Mu-type opioid receptor (Cavia porcellus)	IC50	nM	100
CCCC[C@@H](C(=O)N[C@@H](CC(=O)O)C(=O)N[C@@H](Cc1ccccc1)C(N)=O)N(C)C(=O)[C@H](Cc1c[nH]c2ccccc12)NC(=O)CNC(=O)[C@@H](C)NC(=O)[C@@H](N)Cc1ccc(O)cc1	Mu-type opioid receptor (Cavia porcellus)	IC50	nM	470
CCCC[C@H](NC(=O)[C@H](Cc1c[nH]c2ccccc12)NC(=O)CNC(=O)[C@@H](C)NC(=O)[C@@H](N)Cc1ccc(O)cc1)C(=O)N[C@@H](CC(=O)O)C(=O)N[C@@H](Cc1ccccc1)C(N)=O	Mu-type opioid receptor (Cavia porcellus)	IC50	nM	160
CCCC[C@H](NC(=O)[C@@H](Cc1c[nH]c2ccccc12)NC(=O)CNC(=O)[C@@H](C)NC(=O)[C@@H](N)Cc1ccc(O)cc1)C(=O)N[C@@H](CC(=O)O)C(=O)N[C@@H](Cc1ccccc1)C(N)=O	Mu-type opioid receptor (Cavia porcellus)	IC50	nM	2300

Input line: Identify IC50 associated with the compound `CCCC[C@H](NC(=O)[C@H](Cc1c[nH]c2ccccc12)NC(=O)CNC(=O)[C@@H](CCCC)NC(=O)[C@@H](N)Cc1ccc(O)cc1)C(=O)N[C@@H](CC(=O)O)C(=O)N[C@@H](Cc1ccccc1)C(N)=O`
Output line: 210

Input line: # return recorded IC50 for input `CCCC[C@@H](C(=O)N[C@@H](CC(=O)O)C(=O)N[C@@H](Cc1ccccc1)C(N)=O)N(C)C(=O)[C@@H](Cc1c[nH]c2ccccc12)NC(=O)CNC(=O)[C@@H](Cc1ccccc1)NC(=O)[C@@H](N)Cc1ccc(O)cc1`
Output line: 71

Input line: Give me measured IC50, please, for this compound: `CCCC[C@H](NC(=O)[C@H](Cc1c[nH]c2ccccc12)NC(=O)CNC(=O)[C@@H](Cc1ccccc1)NC(=O)[C@@H](N)Cc1ccc(O)cc1)C(=O)N[C@@H](CC(=O)O)C(=O)N[C@@H](Cc1ccccc1)C(N)=O`
Output line: 420
